The reported measurements were obtained from patent US20250042900A1.

Measurement Target: Opioid Receptor Kappa 1 (OPRK1) (Homo sapiens, UniProt P41145)
Sequence (P41145 whole entry): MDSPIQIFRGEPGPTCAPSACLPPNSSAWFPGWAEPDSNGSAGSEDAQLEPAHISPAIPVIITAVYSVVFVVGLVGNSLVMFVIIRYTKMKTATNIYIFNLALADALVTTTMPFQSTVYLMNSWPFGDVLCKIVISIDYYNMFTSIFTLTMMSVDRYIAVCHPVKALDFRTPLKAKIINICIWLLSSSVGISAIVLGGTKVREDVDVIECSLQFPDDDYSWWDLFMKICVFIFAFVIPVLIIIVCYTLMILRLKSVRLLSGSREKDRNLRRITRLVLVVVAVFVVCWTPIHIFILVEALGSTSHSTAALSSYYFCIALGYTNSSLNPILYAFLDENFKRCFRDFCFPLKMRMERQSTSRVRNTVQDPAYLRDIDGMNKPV
Assay Explanation: cAMP secondary messenger assay, agonist format
Assay type: cell-based
Setup Conditions: read-out: EC50 (μM) Agonist/Opener
Counter-ions that a name gives are not always drawn.
Assay Readout: EC50

Req: Return EC50 (reported value) for this compound: CN(C)CCc1ccn2ccccc12 [28-12 oxalate]
Resp: > 30 µM

###

Measurement Target: Cholecystokinin Receptor A (CCKAR) (Homo sapiens)
Assay Explanation: Calcium flux secondary messenger assay, antagonist format
Format: cell-based
Setup Conditions: read-out: IC50 (μM) Antag./Blocker/Inhibitor
Where a name gives a salt, the structure may show the parent alone.
Assay Readout: IC50

Req: // Input: CN(C)CCc1ccn2ccccc12 [28-12 oxalate] . Output its IC50 only.
Resp: > 30 µM

###

Measurement Target: 5-Hydroxytryptamine (Serotonin) Receptor 1B (5-HT1B) (Homo sapiens)
Construct: host or cells: cAMP Hunter cell line
Assay Explanation: cAMP secondary messenger assay, antagonist format
Format: cell-based
Setup Conditions: read-out: IC50 (μM) Antag./Blocker/Inhibitor
Structures can show the parent of a compound that is named as a salt.
Assay Readout: IC50

Req: Read the entry CN(C)CCc1ccn2ccccc12 [28-12 oxalate] and write its reported IC50.
Resp: > 30 µM

###

Measurement Target: Dopamine Receptor D1 (DRD1) (Homo sapiens)
Assay Explanation: cAMP secondary messenger assay, agonist format
Assay type: cell-based
Setup Conditions: read-out: EC50 (μM) Agonist/Opener
Where a name gives a salt, the structure may show the parent alone.
Assay Readout: EC50

Req: Provide EC50, recorded with Dopamine Receptor D1 (DRD1) (Homo sapiens), of CN(C)CCc1ccn2ccccc12 [28-12 oxalate]
Resp: > 30 µM

###

Measurement Target: Muscarinic acetylcholine Receptor M3 (CHRM3) (Homo sapiens)
Assay Explanation: Calcium flux secondary messenger assay, agonist format
Format: cell-based
Setup Conditions: read-out: EC50 (μM) Agonist/Opener
Where a name gives a salt, the structure may show the parent alone.
Assay Readout: EC50

Req: For the compound CN(C)CCc1ccn2ccccc12 [28-12 oxalate] , give its measured EC50 value.
Resp: > 30 µM

###

Measurement Target: UniProt P07550
Assay Explanation: cAMP secondary messenger assay, antagonist format
Assay type: cell-based
Setup Conditions: read-out: IC50 (μM) Antag./Blocker/Inhibitor
Where a name gives a salt, the structure may show the parent alone.
Assay Readout: IC50 (µM)
Give the quantity in µM, number only.

Req: Provide IC50, recorded with UniProt P07550, of CN(C)CCc1ccn2ccccc12 [28-12 oxalate]
Resp: 10.2

###

Measurement Target: HTR2A (5-hydroxytryptamine (serotonin) receptor 2A) (Homo sapiens, UniProt P28223)
Assay Explanation: In vitro activity at 5-HT2AR, agonist mode (calcium flux secondary messenger assay)
Assay type: cell-based
Setup Conditions: 5-HT2A; Calcium Flux; agonist; read-out: EC50 (μM) Agonist/Opener
Structures can show the parent of a compound that is named as a salt.
Assay Readout: EC50 (µM)
Answer in µM, number only, no unit symbol.

Req: Give me measured EC50, please, for this compound: CN(C)CCc1ccn2ccccc12 [28-12 oxalate]
Resp: 0.052

###

Measurement Target: Cannabinoid Receptor 2 (CNR2) (Homo sapiens)
Sequence (P34972 whole entry): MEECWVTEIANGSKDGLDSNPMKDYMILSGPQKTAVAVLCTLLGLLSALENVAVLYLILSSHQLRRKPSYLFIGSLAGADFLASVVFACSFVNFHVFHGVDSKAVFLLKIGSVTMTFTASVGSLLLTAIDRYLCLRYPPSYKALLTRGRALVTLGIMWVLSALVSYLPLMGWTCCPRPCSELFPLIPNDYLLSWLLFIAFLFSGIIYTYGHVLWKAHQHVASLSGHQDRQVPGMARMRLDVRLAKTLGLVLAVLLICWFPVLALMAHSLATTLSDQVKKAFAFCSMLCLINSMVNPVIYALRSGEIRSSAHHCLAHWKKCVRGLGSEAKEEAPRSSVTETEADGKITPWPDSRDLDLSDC
Assay Explanation: cAMP secondary messenger assay, antagonist format
Format: cell-based
Setup Conditions: read-out: IC50 (μM) Antag./Blocker/Inhibitor
Counter-ions that a name gives are not always drawn.
Assay Readout: IC50

Req: Name the recorded IC50 of the compound listed here: CN(C)CCc1ccn2ccccc12 [28-12 oxalate]
Resp: > 30 µM

###

Measurement Target: Nicotinic acetylcholine Receptor α4 β2 (nAChR(a4/b2)) (Homo sapiens, UniProt P17787+P43681)
Assay Explanation: Ion channel assay, blocker format
Type: cell-based
Setup Conditions: read-out: IC50 (μM) Antag./Blocker/Inhibitor
Structures can show the parent of a compound that is named as a salt.
Assay Readout: IC50

Req: In one line, give reported IC50 of the entry CN(C)CCc1ccn2ccccc12 [28-12 oxalate] .
Resp: > 30 µM

###

Measurement Target: COX1 (Homo sapiens)
Construct: purchased BPS Bioscience
Assay Explanation: Enzymatic assay COX1
Type: biochemical
Setup Conditions: inhibitor, read-out: IC50 (μM) Antag./Blocker/Inhibitor
Where a name gives a salt, the structure may show the parent alone.
Assay Readout: IC50 (µM)
Provide only the numeric value, understood in µM.

Req: Name the recorded IC50 of the molecule listed here: CN(C)CCc1ccn2ccccc12 [28-12 oxalate]
Resp: 5.13

###

Measurement Target: COX2 (Homo sapiens, UniProt P35354)
Construct: purchased BPS Bioscience
Sequence (P35354 18-604): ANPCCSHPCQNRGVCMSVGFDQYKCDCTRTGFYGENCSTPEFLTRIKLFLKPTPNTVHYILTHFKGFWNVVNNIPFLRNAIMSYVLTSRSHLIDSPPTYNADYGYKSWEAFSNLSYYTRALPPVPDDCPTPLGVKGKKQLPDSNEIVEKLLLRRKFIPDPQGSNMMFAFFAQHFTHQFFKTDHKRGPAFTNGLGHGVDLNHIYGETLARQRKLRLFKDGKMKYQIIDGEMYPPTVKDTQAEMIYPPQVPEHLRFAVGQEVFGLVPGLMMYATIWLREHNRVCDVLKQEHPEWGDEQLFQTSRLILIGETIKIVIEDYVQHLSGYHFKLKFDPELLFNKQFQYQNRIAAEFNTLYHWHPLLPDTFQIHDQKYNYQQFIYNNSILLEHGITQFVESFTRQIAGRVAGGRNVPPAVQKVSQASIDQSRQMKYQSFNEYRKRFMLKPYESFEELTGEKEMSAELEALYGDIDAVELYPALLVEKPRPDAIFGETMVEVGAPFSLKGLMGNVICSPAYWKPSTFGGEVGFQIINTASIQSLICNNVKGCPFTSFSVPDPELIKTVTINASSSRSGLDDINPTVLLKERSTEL
Assay Explanation: Enzymatic assay COX2
Type: biochemical
Setup Conditions: inhibitor, read-out: IC50 (μM) Antag./Blocker/Inhibitor
Counter-ions that a name gives are not always drawn.
Assay Readout: IC50

Req: Kindly indicate its recorded IC50. Item: CN(C)CCc1ccn2ccccc12 [28-12 oxalate]
Resp: > 30 µM

###

Measurement Target: Muscarinic acetylcholine Receptor M3 (CHRM3) (Homo sapiens, UniProt P20309)
Sequence (P20309 whole entry): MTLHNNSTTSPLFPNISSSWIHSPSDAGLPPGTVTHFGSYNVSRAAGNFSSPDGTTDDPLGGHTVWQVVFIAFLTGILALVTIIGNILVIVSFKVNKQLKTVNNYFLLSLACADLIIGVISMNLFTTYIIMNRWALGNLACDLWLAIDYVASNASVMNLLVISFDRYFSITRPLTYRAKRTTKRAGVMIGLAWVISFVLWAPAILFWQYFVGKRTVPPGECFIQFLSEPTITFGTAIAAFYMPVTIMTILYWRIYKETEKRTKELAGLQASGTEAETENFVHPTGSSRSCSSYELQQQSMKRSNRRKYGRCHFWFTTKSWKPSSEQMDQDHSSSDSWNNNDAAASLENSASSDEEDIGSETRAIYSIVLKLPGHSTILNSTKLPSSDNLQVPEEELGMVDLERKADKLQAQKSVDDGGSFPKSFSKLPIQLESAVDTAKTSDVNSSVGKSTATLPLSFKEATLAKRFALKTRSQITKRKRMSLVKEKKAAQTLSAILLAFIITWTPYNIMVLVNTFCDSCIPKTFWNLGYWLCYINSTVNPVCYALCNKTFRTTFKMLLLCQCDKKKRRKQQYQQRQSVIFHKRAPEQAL
Assay Explanation: cell-based
Setup Conditions: Calcium Flux, antagonist, read-out: IC50 (μM) Antag./Blocker/Inhibitor
Structures can show the parent of a compound that is named as a salt.
Assay Readout: IC50

Req: Indicate its recorded IC50; the molecule in question is CN(C)CCc1ccn2ccccc12 [28-12 oxalate]
Resp: > 30 µM

###

Measurement Target: Dopamine Receptor D2 (DRD2S) (Homo sapiens, UniProt P14416)
Assay Explanation: cAMP secondary messenger assay, antagonist format
Format: cell-based
Setup Conditions: read-out: IC50 (μM) Antag./Blocker/Inhibitor
Counter-ions that a name gives are not always drawn.
Assay Readout: IC50 (µM)
Give just the numeric value; µM need not be written.

Req: Given the compound CN(C)CCc1ccn2ccccc12 [28-12 oxalate] , write its reported IC50.
Resp: 22.3

###

Measurement Target: Adenosine Receptor A2A (ADORA2A) (Homo sapiens, UniProt P29274)
Sequence (P29274 whole entry): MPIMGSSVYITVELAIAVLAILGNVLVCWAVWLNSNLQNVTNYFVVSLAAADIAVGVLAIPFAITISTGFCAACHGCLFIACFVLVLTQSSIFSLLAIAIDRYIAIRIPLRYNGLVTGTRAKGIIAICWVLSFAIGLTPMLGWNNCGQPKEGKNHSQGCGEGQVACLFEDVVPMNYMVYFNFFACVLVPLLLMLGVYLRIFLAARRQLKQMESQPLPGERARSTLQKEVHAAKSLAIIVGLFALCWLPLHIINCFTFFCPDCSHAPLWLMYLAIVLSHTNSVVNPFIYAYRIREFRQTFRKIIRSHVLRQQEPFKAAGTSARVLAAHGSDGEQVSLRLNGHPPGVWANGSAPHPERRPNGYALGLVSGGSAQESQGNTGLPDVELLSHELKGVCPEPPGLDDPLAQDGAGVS
Assay Explanation: Calcium flux secondary messenger assay, agonist format
Type: cell-based
Setup Conditions: read-out: EC50 (μM) Agonist/Opener
Counter-ions that a name gives are not always drawn.
Assay Readout: EC50

Req: Please give the documented EC50 of CN(C)CCc1ccn2ccccc12 [28-12 oxalate]
Resp: > 30 µM

###

Measurement Target: MAOA (Homo sapiens)
Construct: purchased Sigma
Assay Explanation: Enzymatic assay MAOA
Assay type: biochemical
Setup Conditions: inhibitor, read-out: IC50 (μM) Antag./Blocker/Inhibitor
Where a name gives a salt, the structure may show the parent alone.
Assay Readout: IC50 (µM)
Expressed in µM, but write only the number.

Req: Specify measured IC50 for CN(C)CCc1ccn2ccccc12 [28-12 oxalate] .
Resp: 7.25

###

Measurement Target: UniProt P21554
Sequence (P21554 whole entry): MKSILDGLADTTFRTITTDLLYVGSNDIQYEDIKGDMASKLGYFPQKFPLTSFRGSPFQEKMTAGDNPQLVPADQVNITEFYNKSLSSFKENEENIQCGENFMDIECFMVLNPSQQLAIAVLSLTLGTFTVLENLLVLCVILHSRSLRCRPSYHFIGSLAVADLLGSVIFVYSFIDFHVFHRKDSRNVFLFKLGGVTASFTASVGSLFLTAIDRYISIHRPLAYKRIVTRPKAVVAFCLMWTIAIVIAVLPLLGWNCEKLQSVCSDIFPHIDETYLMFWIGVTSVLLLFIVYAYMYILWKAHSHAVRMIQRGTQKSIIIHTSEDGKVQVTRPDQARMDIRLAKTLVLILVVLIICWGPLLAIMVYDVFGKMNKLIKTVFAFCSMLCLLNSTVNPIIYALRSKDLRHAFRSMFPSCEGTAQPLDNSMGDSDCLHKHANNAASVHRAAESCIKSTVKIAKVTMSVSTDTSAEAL
Assay Explanation: cAMP secondary messenger assay, antagonist format
Assay type: cell-based
Setup Conditions: read-out: IC50 (μM) Antag./Blocker/Inhibitor
Where a name gives a salt, the structure may show the parent alone.
Assay Readout: IC50

Req: Report IC50, nothing else, for this compound: CN(C)CCc1ccn2ccccc12 [28-12 oxalate]
Resp: > 30 µM

###

Measurement Target: PDE3A (Homo sapiens, UniProt Q14432)
Construct: purchased Signal Chem
Sequence (Q14432 whole entry): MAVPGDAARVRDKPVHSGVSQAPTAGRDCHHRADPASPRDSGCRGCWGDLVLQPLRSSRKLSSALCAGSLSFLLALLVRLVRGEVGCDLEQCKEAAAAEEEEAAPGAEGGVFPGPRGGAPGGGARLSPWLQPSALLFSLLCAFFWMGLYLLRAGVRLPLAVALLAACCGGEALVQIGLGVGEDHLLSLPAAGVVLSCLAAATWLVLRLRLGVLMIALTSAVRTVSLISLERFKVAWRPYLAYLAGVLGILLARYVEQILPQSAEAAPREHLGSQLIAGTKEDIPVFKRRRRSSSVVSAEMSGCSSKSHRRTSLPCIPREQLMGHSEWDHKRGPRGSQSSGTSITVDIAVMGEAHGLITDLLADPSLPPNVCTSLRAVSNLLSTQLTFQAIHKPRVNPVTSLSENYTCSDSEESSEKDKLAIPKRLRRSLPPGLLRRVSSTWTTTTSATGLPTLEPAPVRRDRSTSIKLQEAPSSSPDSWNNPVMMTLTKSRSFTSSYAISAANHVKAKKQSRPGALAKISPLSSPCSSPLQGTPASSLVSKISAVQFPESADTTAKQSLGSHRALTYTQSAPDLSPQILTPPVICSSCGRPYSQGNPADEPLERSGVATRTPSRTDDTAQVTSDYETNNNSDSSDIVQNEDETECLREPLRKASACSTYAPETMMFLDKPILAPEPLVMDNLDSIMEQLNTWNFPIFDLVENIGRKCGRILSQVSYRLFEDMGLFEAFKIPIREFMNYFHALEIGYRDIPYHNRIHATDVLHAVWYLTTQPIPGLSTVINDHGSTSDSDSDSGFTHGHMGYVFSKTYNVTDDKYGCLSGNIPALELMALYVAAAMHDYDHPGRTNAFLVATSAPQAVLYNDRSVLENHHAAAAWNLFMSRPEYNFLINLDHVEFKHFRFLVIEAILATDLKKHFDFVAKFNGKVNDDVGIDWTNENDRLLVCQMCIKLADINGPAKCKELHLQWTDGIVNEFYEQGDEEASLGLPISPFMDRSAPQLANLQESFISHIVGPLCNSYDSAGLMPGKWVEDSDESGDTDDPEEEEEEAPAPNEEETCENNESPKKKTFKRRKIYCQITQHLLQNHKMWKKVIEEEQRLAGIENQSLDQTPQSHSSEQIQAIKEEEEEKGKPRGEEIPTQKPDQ
Assay Explanation: Enzymatic assay PDE3A
Type: biochemical
Setup Conditions: inhibitor, read-out: IC50 (μM) Antag./Blocker/Inhibitor
Where a name gives a salt, the structure may show the parent alone.
Assay Readout: IC50

Req: Give the reported value of IC50 for this record: CN(C)CCc1ccn2ccccc12 [28-12 oxalate]
Resp: > 30 µM

###

Measurement Target: N-methyl-D-aspartate (NMDA) Glutamate Receptor 1A/2B (NMDAR (1A/2B)) (Homo sapiens, UniProt Q05586+Q13224)
Sequence (Q13224 27-1484, other chains not shown): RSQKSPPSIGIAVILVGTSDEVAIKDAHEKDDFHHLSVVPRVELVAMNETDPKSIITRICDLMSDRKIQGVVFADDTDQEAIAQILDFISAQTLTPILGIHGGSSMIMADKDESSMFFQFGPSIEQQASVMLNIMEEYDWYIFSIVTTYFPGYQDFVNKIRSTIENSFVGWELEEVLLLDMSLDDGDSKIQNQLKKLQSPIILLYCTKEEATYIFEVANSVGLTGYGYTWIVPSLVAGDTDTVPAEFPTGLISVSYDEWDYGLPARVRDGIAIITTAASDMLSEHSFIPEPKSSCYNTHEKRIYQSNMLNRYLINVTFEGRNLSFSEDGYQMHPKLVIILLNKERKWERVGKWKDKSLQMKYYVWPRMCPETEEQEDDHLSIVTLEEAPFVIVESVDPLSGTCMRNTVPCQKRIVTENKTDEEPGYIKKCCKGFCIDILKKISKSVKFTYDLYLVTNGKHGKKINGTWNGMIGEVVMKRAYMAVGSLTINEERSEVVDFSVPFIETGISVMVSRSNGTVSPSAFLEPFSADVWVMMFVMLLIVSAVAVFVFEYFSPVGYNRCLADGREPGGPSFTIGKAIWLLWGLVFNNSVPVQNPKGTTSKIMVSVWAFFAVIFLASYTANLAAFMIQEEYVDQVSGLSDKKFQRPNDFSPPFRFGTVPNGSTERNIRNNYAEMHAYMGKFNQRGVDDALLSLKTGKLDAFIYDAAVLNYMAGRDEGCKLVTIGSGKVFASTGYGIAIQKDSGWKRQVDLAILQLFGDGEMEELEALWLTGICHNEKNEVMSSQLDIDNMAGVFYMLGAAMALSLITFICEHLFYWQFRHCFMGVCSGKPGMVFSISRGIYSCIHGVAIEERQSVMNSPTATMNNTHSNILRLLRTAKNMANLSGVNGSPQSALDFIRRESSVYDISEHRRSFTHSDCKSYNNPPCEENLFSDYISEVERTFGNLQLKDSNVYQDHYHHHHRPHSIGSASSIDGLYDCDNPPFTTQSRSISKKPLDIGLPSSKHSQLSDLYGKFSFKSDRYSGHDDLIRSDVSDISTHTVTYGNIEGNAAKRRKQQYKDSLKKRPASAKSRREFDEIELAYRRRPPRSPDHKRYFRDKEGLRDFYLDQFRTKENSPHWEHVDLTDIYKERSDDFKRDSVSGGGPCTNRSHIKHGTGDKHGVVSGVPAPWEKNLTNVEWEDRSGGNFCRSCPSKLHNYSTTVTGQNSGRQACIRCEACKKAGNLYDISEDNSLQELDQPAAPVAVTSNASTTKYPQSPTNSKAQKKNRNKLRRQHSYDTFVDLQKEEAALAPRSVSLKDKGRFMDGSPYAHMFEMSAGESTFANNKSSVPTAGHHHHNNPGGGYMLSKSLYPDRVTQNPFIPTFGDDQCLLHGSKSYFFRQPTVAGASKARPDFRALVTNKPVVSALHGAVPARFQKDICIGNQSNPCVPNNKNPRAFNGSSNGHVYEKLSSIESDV
Assay Explanation: Ion channel assay, blocker format
Type: cell-based
Setup Conditions: read-out: IC50 (μM) Antag./Blocker/Inhibitor
Structures can show the parent of a compound that is named as a salt.
Assay Readout: IC50

Req: Tell me its IC50 given CN(C)CCc1ccn2ccccc12 [28-12 oxalate] as the entry.
Resp: > 30 µM
